- assay_comment: yeast display, Sf9 membrane polyspecificity reagent, FACS + sequencing; frameworks hold sequencing errors
parameter: polyreactivity (PSR sort gate)

>>> measurement("QVQLVESGGGLVQAGGSLRLSCAASGRTFSQYAMGWYRPAPGKERELVAAITRSGSRTYYADSVKGRFTISRDNAKNTVYLQMNSLKPEDTAVYYCAADGHAGYPIDEYYYWGQGTQVTVSS")
"high polyreactivity"
>>> measurement("QVQLQESGGGLLQAGGSLRLSCAASGNFFDADIMGWYRQAPGKERELVASITDGGSTNYADRVKGRFTISRGNTKNTVYLLMNCLKPDDTSVYYCAAIAYPDIPTYFDYNSDYFYGGQGTQVTVSS")
"high polyreactivity"
>>> measurement("QVQLVESGGGLVQAGGSLRLSCASSGLIFSIYAMGWYRQAPGKERELVAAIRWSGGSTYYADSVKGRFTISRDNAKNTVYLQMNSLKPEDTADYYCNADITVYVRIYQYNYWGQGTQVTVSS")
"low polyreactivity"
>>> measurement("QVQLVESGGGLVQAGGSLRLSCAASGFTFGYNAMGWYRQAPGKERELVAVINKSGGSTYYADSVKGRFTISRDNAKNTVYLQMNSLKPEDTAVYYCAATYNGWKRYYYWGQGTQVTVSS")
"high polyreactivity"
>>> measurement("QVQLVESGGGLVQAGGSLRLSCAASGSTFGRYAMGWYRPAPGKGRELDGAISRRGGSTYYADSVKGRFTISRDYAMKTVYFQMHSLKPEDTAVYDCATGYPIELGREFDYWGQGIQVTVSS")
"high polyreactivity"
>>> measurement("QVQLEESGVGLVQAGGSLRLSCAASGSTFQTYVMGWYRQAPGKERELVAAISSGGSTNYADSVKGRFTISRDNAKNTVYLQMNSLKPEDTAVYYCAKRWPYFRRGKDGYWGQGTQVTVSS")
"low polyreactivity"
>>> measurement("QVQLVESGGGLVQAGGSLRLSCAASGRTFYIYAMGWYRQAPGKERALDAAITYGGGRTFYADSVKGRFTISRDNAKNTVYLQMNSLKPEDTAVYYCAATVRGKRSTYDYWGQGTQVTVSS")
"high polyreactivity"
>>> measurement("QVQLVESGGGLVQAGGILRLSCAASGRTFNGNAMGWYRQAPGKERELVAAISGGSTSYADSVKGRFTISRDNAKNTVYLQMNSLKPEDTAVYYCATDPSEEYDYWGQGNQVTVSS")
"low polyreactivity"
>>> measurement("QVQLHESGGGLVQAGGSLRLSCAASGTISYAGPMGWYRQAPGKEREVVAGIGVGSNTIYADSVKGRYTIIRDNAKKTVYLQMKSLKPEDTEVYYCAVGGYAPLGRPYWGQGTQVTVSS")
"low polyreactivity"
>>> measurement("QVQLVESGGGLVQAGGSLRLSCAASGRTFRTNTMGWYRQAPGKERELVAAIRYIGGSTYYADSVKGRFTISRDNAKNTVYLQMNSLKPEDTAVYYCAAYRYGSRYGYEYWGQGTQVTVSS")
"high polyreactivity"
>>> measurement("QVQLVESGGGLVQAGGSLRLSCAASGSIFTVYAMGWYRQAPGKERELVASISKSGGSTYYADSVKGRFTISRDNAKNTVYLQMNSLKPEDTAVYYCAAESGRTYSHRHYDSWGQGTQVTVSS")
"low polyreactivity"
